- measured target: Factor X, P00742
- Sequence (P00742 whole entry, looked up): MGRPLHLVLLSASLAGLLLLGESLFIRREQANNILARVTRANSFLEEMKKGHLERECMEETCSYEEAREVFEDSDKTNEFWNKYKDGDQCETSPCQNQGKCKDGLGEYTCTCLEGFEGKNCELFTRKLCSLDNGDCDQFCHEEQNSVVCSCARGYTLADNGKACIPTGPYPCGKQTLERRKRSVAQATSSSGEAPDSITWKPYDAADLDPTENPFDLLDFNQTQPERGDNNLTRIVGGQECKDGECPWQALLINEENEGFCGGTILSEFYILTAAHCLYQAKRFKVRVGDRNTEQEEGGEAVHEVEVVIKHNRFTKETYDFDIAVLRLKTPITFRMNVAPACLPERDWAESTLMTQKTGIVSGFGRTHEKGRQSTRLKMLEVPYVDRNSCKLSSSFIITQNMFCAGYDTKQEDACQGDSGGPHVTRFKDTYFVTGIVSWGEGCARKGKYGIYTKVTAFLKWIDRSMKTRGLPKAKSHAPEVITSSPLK

protein	kcat / s⁻¹
FIXa-Y155F/K247N/N249S/R318Y/R338E/T343R/R403E (protein) chain 1: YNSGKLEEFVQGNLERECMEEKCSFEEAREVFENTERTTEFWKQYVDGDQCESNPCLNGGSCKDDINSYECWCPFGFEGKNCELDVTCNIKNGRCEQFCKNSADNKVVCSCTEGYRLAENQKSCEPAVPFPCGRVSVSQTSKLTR chain 2: VVGGEDAKPGQFPWQVVLNGKVDAFCGGSIVNEKWIVTAAHCVETGVKITVVAGEHNIEETEHTEQNRSVIRIIPHHNYNAAINKYNHDIALLELDEPLVLNSYVTPICIADKEYTNIFLKFGSGYVSGWGRVFHKGYSALVLQYLRVPLVDRATCLESTKFRIYNNMFCAGFHEGGRDSCQGDSGGPHVTEVEGTSFLTGIISWGEECAMKGKYGIYTKVSEYVNWIKEKTKLT	10.6
FIXa-K247N/N249S/N260S/R318Y/R338E/R403E/E410N (protein) chain 1: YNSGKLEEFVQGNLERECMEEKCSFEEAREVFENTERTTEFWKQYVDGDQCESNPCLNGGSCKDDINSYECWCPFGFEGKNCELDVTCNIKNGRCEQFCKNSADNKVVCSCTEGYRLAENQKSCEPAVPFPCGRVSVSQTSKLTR chain 2: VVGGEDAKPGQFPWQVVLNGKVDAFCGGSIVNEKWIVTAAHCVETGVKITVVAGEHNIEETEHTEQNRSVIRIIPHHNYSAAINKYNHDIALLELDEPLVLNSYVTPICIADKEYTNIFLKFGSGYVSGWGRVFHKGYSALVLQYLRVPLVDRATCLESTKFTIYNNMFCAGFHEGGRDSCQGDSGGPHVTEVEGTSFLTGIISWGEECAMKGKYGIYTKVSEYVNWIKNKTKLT	6
